- System: Oryctolagus cuniculus
- method_notes: Toxicity in hyperlipidemic New Zealand Oryctolagus cuniculus (rabbit) assessed as total bilirubin level at 5 mg/kg/day, po for 2 months (reference value: 28.45 +/- 11.55 Umol/l)
- Assay type: organism-based
- Parameters: route oral
- assay_conditions: in vivo

{"compound": "CCCCCCCCCCCCCCCCc1c2c(OC)c(OC)ccc2cc2[n+]1CCc1cc3c(cc1-2)OCO3.[Cl-] [8-HEXADECYL-BERBERINE CHLORIDE]", "Activity [µmol/L]": 15.6}

---

- System: Oryctolagus cuniculus
- method_notes: Antihyperlipidemic activity in high fat-high cholesterol fed New Zealand Oryctolagus cuniculus (rabbit) assessed as high-density lipoprotein-cholesterol level in blood at 15 mg/kg, po for 40 days (reference value: 0.67 +/- 0.22 mmol/l)
- Type: functional
Measured Activity, listed per entry for reference.
parameter: Activity (nmol/L)

{"compound": "CCCCCCCCCCCCCCCCc1c2c(OC)c(OC)ccc2cc2[n+]1CCc1cc3c(cc1-2)OCO3.[Cl-] [8-HEXADECYL-BERBERINE CHLORIDE]", "parameter": "Activity", "measured_result": 750000}
{"compound": "CCCCCCCCCCCCCCCCCCc1c2c(OC)c(OC)ccc2cc2[n+]1CCc1cc3c(cc1-2)OCO3.[Cl-] [8-OCTADECYL-BERBERINE CHLORIDE]", "parameter": "Activity", "measured_result": 750000}
{"compound": "COc1ccc2cc3[n+](cc2c1OC)CCc1cc2c(cc1-3)OCO2.[Cl-] [BERBERINE CHLORIDE]", "parameter": "Activity", "measured_result": 700000}
{"compound": "CCCCCCCCCCCCc1c2c(OC)c(OC)ccc2cc2[n+]1CCc1cc3c(cc1-2)OCO3.[Cl-] [8-DODECYL-BERBERINE CHLORIDE]", "parameter": "Activity", "measured_result": 720000}
{"compound": "CCCCCCCCCCCCCCc1c2c(OC)c(OC)ccc2cc2[n+]1CCc1cc3c(cc1-2)OCO3.[Cl-] [8-TETRADECYL-BERBERINE CHLORIDE]", "parameter": "Activity", "measured_result": 730000}
{"compound": "CCCCCCCCc1c2c(OC)c(OC)ccc2cc2[n+]1CCc1cc3c(cc1-2)OCO3.[Cl-] [8-OCTYL-BERBERINE CHLORIDE]", "parameter": "Activity", "measured_result": 700000}
